A collection of molecules and their measured EC50
test: NIH-3T3 fibroblast cytotoxicity, dose response, cytotoxicity control, cell-based, fluorescence, Alamar Blue, secondary assay (AID 2327); type: functional;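 note: NIH-3T3 mouse fibroblasts cultured with fluconazole at 8 µg/mL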
Activity calls are given as the source filed them.
property.name: EC50

1) CN(C)c1ccc(C(=O)N/N=C/c2cc(Br)cc(Br)c2O)cc1
14 µM (active)
2) O=S(=O)(O)c1cccc2c(N=Nc3ccc(O)c4ncccc34)cccc12
> 160 µM (inactive)
3) CCCCN(CCCC)S(=O)(=O)c1ccc(C(=O)Nc2nnc(COC)o2)cc1
> 150 µM (inconclusive)
4) CN(/C=C/C1=[N+](C)c2ccccc2C1(C)C)c1ccccc1
> 160 µM (inactive)
5) CCCCCCCCCn1c2c(c(=N)c3c1CCC3)CCCC2
60.2 µM (active)

----------
A collection of molecules and their measured AC50
biological target: Microphthalmia-associated transcription factor (Homo sapiens); experiment: TRPM1 promoter luciferase signal decrease, dose response, MITF inhibitor project, cell-based, SK-MEL-5, cherry-picked, set 3 (AID 493073); assay type: functional
Sequence (O75030 whole entry): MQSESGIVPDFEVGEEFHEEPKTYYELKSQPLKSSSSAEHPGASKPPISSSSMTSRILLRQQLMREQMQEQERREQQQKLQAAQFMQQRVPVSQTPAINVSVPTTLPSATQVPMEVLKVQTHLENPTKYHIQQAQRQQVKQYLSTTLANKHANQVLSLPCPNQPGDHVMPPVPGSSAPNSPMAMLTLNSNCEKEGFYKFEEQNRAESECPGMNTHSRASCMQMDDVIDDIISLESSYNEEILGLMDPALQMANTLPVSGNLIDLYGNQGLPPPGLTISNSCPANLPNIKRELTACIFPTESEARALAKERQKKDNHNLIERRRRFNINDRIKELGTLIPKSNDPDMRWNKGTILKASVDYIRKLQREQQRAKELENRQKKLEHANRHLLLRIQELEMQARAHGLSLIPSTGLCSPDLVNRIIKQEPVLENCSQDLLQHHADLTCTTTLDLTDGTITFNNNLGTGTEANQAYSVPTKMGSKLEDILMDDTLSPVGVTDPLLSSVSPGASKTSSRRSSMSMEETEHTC
Active and inactive are the calls of the source.
property.name: AC50

1) O=[N+]([O-])c1cc(S(=O)(=O)N2CCCCCC2)ccc1F
9.53 µM (active)
2) C=CCOc1ccc(/C=C2\SC(=S)N(CCC(=O)O)C2=O)cc1
0.337 µM (active)
3) COC(=O)c1ccc2c(c1O)C(=O)c1ccccc1C2=O
1.61 µM (active)
4) CCN(Cc1ccc(OC)c(F)c1)C(=O)CCl
3.36 µM (active)
5) CCN1CCN(c2ccc(NC(=O)c3ccc([N+](=O)[O-])o3)cc2Cl)CC1
9.54 µM (active)

----------
target: Fatty acid synthase (Homo sapiens); test: FAS thioesterase domain inhibitors, dose response, biochemical, endpoint fluorescence intensity, uHTS hits (AID 624327); assay type: functional;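 note: fluorescence from hydrolysis of an O-methyl fluorescein acyl ester substrate by the enzyme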
Sequence (P49327 whole entry, the tested form may be a part): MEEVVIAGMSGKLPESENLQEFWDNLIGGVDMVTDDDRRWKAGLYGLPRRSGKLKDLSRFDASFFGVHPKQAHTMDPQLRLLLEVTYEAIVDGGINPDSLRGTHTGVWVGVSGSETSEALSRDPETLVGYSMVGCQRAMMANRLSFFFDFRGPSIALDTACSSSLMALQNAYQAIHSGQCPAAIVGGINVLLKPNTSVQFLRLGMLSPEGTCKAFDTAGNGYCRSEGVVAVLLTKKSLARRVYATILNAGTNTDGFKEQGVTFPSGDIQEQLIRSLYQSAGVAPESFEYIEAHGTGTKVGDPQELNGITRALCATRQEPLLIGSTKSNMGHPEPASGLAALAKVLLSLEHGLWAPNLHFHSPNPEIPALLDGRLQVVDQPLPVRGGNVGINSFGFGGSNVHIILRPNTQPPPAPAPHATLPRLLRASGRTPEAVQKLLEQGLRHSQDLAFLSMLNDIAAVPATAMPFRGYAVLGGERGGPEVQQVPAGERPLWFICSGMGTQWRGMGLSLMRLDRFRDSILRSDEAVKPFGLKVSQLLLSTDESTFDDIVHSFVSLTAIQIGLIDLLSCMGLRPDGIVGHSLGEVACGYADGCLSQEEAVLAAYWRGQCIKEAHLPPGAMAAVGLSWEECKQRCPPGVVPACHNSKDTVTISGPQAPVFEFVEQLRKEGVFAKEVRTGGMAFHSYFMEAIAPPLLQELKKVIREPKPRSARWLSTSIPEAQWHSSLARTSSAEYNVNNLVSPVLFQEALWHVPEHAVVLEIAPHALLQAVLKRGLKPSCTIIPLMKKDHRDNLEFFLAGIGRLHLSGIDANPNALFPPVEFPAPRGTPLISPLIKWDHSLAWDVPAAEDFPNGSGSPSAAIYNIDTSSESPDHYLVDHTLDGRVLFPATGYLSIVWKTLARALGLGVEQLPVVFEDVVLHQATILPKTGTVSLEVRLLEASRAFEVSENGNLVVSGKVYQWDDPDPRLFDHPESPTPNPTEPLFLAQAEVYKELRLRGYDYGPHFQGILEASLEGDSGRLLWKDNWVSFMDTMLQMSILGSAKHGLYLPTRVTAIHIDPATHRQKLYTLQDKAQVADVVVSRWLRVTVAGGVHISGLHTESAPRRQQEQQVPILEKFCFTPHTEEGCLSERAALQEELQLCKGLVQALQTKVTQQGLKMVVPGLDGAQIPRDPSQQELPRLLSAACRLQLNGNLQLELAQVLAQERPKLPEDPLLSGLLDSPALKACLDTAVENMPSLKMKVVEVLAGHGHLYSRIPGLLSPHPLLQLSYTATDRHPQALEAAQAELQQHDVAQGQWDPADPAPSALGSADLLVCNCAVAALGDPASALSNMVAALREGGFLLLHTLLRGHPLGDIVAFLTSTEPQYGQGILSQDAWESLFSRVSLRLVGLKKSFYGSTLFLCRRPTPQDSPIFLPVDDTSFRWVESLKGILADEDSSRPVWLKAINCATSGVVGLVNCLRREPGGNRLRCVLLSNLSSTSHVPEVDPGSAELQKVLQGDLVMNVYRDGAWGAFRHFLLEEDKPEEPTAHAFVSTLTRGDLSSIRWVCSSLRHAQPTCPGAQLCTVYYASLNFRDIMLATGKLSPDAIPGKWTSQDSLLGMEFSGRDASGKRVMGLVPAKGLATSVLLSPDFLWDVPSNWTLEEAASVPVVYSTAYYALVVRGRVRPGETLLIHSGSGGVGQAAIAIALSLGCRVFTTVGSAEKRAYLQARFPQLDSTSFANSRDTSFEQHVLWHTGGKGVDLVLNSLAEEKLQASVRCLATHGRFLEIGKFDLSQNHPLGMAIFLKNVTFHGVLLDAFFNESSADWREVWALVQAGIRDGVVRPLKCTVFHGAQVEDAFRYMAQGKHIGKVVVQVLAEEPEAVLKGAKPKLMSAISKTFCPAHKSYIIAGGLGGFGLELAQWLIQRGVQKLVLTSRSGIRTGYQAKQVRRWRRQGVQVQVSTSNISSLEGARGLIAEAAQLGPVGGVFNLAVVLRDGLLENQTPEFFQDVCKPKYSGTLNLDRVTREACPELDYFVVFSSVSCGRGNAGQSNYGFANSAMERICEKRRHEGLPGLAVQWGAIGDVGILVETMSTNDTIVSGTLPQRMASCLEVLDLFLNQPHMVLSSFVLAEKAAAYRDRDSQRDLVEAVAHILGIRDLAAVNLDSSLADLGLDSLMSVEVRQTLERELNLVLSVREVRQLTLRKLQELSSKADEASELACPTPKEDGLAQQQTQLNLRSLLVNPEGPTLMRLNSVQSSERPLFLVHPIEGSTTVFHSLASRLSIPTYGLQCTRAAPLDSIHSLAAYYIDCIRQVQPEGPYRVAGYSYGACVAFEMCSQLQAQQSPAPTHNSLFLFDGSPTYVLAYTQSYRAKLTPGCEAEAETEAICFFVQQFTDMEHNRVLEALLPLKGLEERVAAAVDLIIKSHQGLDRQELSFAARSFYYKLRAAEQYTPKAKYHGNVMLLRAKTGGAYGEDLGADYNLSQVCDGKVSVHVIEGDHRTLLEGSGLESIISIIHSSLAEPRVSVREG
Active and inactive are the calls of the source.
property.name: IC50

1. CC(C)c1ccc(S(=O)(=O)c2nnn3c2nc(NCC2CCCO2)c2ccccc23)cc1 (stereo unspecified)
1.72 µM (active)
2. CC1CCN(S(=O)(=O)c2ccc3c(c2)c(=O)c(C(=O)NCc2ccco2)cn3C)CC1
3.81 µM (active)
3. O=C(Cn1nc(-c2ccco2)ccc1=O)Nc1cc(C(F)(F)F)ccc1Cl
11.8 µM (active)
4. Cc1nc(Sc2ccccc2)c(C#N)c(C)c1[N+](=O)[O-]
13.9 µM (active)
5. COc1cccc(NC(=O)CN2C(=O)CSc3ccc(S(=O)(=O)N4CCC(C)CC4)cc32)c1
6.24 µM (active)
6. O=C(CCN1C(=O)/C(=C/c2ccccc2Cl)SC1=S)Nc1ccccc1C(=O)O
6.5 µM (active)

----------
molecular target: Short transient receptor potential channel 4 (Mus musculus, UniProt Q9QUQ5); assay: mouse TRPC4 channel activators, dose response, cell-based, HEK293 TRPC4/mu-opioid, Fluo-4 calcium (AID 434937); assay type: functional
Sequence (Q9QUQ5 whole entry): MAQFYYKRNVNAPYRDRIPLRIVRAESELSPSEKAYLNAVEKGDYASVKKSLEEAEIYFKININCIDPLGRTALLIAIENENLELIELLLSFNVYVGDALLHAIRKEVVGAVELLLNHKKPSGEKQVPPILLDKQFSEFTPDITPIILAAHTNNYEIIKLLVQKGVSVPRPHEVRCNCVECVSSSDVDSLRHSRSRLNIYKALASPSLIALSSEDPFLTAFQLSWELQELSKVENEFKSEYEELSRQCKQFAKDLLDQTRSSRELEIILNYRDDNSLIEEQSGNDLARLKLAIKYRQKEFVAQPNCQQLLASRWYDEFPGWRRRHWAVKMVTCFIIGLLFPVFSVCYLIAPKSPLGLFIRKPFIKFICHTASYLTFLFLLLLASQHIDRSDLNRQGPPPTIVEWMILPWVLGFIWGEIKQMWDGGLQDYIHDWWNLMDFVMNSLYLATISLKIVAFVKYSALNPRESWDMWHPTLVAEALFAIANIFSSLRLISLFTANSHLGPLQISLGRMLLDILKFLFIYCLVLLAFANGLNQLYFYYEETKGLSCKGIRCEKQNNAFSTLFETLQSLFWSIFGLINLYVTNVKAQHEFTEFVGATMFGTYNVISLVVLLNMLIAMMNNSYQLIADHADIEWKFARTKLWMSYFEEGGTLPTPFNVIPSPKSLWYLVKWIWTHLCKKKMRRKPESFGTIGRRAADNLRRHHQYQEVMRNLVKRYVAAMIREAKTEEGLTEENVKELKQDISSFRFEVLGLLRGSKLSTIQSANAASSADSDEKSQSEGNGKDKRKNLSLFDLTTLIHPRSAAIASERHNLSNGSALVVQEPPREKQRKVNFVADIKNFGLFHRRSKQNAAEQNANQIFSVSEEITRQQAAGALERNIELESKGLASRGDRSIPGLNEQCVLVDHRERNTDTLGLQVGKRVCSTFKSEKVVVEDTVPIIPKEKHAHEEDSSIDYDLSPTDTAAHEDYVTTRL
Active and inactive are the calls of the source.
property.name: EC50

1) CCOC(=O)C1(c2ccccc2)CCN(CCC(=O)Nc2ccccc2OC)CC1
1880 nM (active)
2) CN(CCOc1ccc(Br)cc1)CC(O)c1ccccc1 (stereo not given)
1330 nM (active)
3) COc1ccc2c(c1O)[C@]13CCN(C)[C@H](C2)[C@@H]1CCC(=O)C3
42.7 nM (active)
4) Cc1onc(-c2ccccc2)c1C(=O)NNC(=S)NC(=O)c1ccc(Cl)cc1Cl
1880 nM (active)
5) COc1cc(C)c(CNCCc2c[nH]c3ccccc23)cc1C
2660 nM (active)

// data source = ChEMBL document CHEMBL1201862
